- assayed-system: mouse B6 class I antigens (Mouse MHC Class I; D^b or K^b molecules on the surface of RMA-S cells)
- test-protocol: binding of 9-mer peptides within p117-139 to mouse B6 (H-2^b) class I antigens; RMA-S assay as for Table XLVII
Binding Affinity to Mouse MHC Class I listing for selected binders.
Enter the number, and then the unit.

Previously resolved entries follow.
{"binder": "PNAPYLPSC [WT1 peptide P129-137 (…)]", "Binding Affinity to Mouse MHC Class I": "1%"}
{"binder": "FPNAPYLPS [WT1 peptide P128-136 (…)]", "Binding Affinity to Mouse MHC Class I": "1%"}
{"binder": "APYLPSCLE [WT1 peptide P131-139 (…)]", "Binding Affinity to Mouse MHC Class I": "1%"}
{"binder": "NAPYLPSCL [WT1 peptide P130-138 (…)]", "Binding Affinity to Mouse MHC Class I": "79%"}
{"binder": "QASSGQARM [WT1 peptide P119-127 (…)]", "Binding Affinity to Mouse MHC Class I": "2%"}
{"binder": "ARMFPNAPY [WT1 peptide P125-133 (…)]", "Binding Affinity to Mouse MHC Class I": "1%"}

Task: Give Binding Affinity to Mouse MHC Class I for SQASSGQAR [WT1 peptide P118-126 (…)]
Output: 2%

Task: Consider the binder PSQASSGQA [WT1 peptide P117-125 (…)] and give its recorded Binding Affinity to Mouse MHC Class I.
Output: 2%

Task: Please look at this binder and report its Binding Affinity to Mouse MHC Class I: SSGQARMFP [WT1 peptide P121-129 (…)]
Output: 1%

Task: Return value of Binding Affinity to Mouse MHC Class I for input ASSGQARMF [WT1 peptide P120-128 (…)] , no commentary.
Output: 1%

Task: Report measured Binding Affinity to Mouse MHC Class I; entry is MFPNAPYLP [WT1 peptide P127-135 (…)]
Output: 2%

Task: Name the recorded Binding Affinity to Mouse MHC Class I of the binder listed here: QARMFPNAP [WT1 peptide P124-132 (…)]
Output: 1%
